- TEST_NAME: inhibitors of induced NF-kB luciferase reporter, primary screen, TCR NF-kB activation inhibitor project, cell-based, luminescence, uHTS (AID 435003)
- SETUP_CONDITIONS: Jurkat, PMA/ionomycin-induced NF-kB luciferase reporter, at 4 µM, hits give high values
Out of some 330,000 compounds screened, about 1,700 (0.52%) were called active. The sample as a whole holds a higher share of actives than the screen did.
READOUT_LABEL: inhibition (%)
Provide the reading as a plain figure in %.

Dear colleague, I am looking for the recorded inhibition of the following compound: `N/C(=N\OC(=O)Cc1ccccc1[N+](=O)[O-])c1ccc(Br)cc1`
1.58

Dear colleague, I am looking for the recorded inhibition of the following compound: `C[C@@H]1NC(=O)[C@@]2(C)[C@@H](c3ccccc3)[C@H]3COc4ccccc4[C@@H]3N2C1=O`
7.9

Dear colleague, I am looking for the recorded inhibition of the following compound: `Cc1cc(C(=O)N/N=C/c2ccccn2)c2ccccc2n1`
3.68

Dear colleague, I am looking for the recorded inhibition of the following compound: CCc1ccc(NC2Nc3cc(C)nn3S2)cc1 (stereo not given)
-76.8

Dear colleague, I am looking for the recorded inhibition of the following compound: `CC(C)(C)Nc1c(-c2cccs2)nc2ccccn12`
-10.6

Dear colleague, I am looking for the recorded inhibition of the following compound: `CC/C(=N\NC(=O)c1c(C)nc2ccccn12)c1ccc(Cl)cc1`
-10.6

Dear colleague, I am looking for the recorded inhibition of the following compound: `CCOc1ccc(N=C2NC(=O)S/C2=C\c2ccc(O)cc2)cc1`
11.9

Dear colleague, I am looking for the recorded inhibition of the following compound: `C=CCn1c(C)cc(C2=NNC(=NCC)SC2)c1C`
67.2

Dear colleague, I am looking for the recorded inhibition of the following compound: CSc1ccc(NC(=O)N2CC(C)OC(C)C2)cc1 (stereo not given)
21.7

Dear colleague, I am looking for the recorded inhibition of the following compound: `Cc1ccsc1-c1nc(CSCC(=O)NCCN2CCCC2)c(C)o1`
-7.15

Dear colleague, I am looking for the recorded inhibition of the following compound: `CCCC(=O)Nc1nc2ccc(NC(=O)c3cccnc3)cc2s1`
40.8

Dear colleague, I am looking for the recorded inhibition of the following compound: `COc1ccc(C(=O)CCC(=O)Nc2ccc(Cl)cc2)cc1`
10.1

Dear colleague, I am looking for the recorded inhibition of the following compound: `COc1cccc(/C=N/NC(=O)c2[nH]nc3c2CCc2ccccc2-3)c1O`
60.8

Dear colleague, I am looking for the recorded inhibition of the following compound: `O=C1Oc2ccccc2C(=O)/C1=C/c1ccccc1O`
8.95

Dear colleague, I am looking for the recorded inhibition of the following compound: `COc1ccc(CNS(=O)(=O)c2cc(-c3cc(C)no3)ccc2C(C)C)cc1`
50.9

Dear colleague, I am looking for the recorded inhibition of the following compound: `CC[n+]1c(C)n(-c2ccccc2)c2ccc(NC(C)=O)cc21`
35.7

Dear colleague, I am looking for the recorded inhibition of the following compound: COC(=O)C1=NNC2(c3ccc(C)cc3)C(=O)N(c3cccc(C)c3C)C(=O)C12 (stereo not given)
-13.7

Dear colleague, I am looking for the recorded inhibition of the following compound: `O=C(Nc1ccc(CSc2ccccc2)cc1)c1ccc(CN2CCOCC2)cc1`
69

Dear colleague, I am looking for the recorded inhibition of the following compound: `O=[N+]([O-])/C=C1\CCCCCN1`
-12.2

Dear colleague, I am looking for the recorded inhibition of the following compound: `N/C(=N\OC(=O)N1c2ccccc2Sc2ccccc21)c1ccc(Br)cc1`
77

Dear colleague, I am looking for the recorded inhibition of the following compound: `COC(=O)c1sccc1NC(=S)Nc1ccc(C)cc1`
-16.1

Dear colleague, I am looking for the recorded inhibition of the following compound: COc1ccc(N2CC(NS(=O)(=O)c3ccc4ccccc4c3)CC2=O)cc1 (stereo not given)
4

Dear colleague, I am looking for the recorded inhibition of the following compound: `Cc1c(C)c2cc3c4c(oc3c(C)c2oc1=O)CCCC4`
-27.9

Dear colleague, I am looking for the recorded inhibition of the following compound: `COc1ccccc1NS(=O)(=O)c1ccc(C(=O)N2CCN(c3ccccc3O)CC2)cc1`
-3.42

Dear colleague, I am looking for the recorded inhibition of the following compound: `Cc1ccc2c(c1)N(CC(=O)NCCCN1CCCCC1)C(=O)c1cccnc1O2`
-8.41

Dear colleague, I am looking for the recorded inhibition of the following compound: `COCc1c(C(=O)N/N=C(\C)c2ccncc2)nnn1-c1nonc1N`
-38.2

Dear colleague, I am looking for the recorded inhibition of the following compound: `Cc1nnc(N/N=C/c2ccccn2)[nH]c1=O`
58.1

Dear colleague, I am looking for the recorded inhibition of the following compound: `CCCC(=O)Nc1nc2ccc(NC(=O)c3c(F)c(F)c(OC)c(F)c3F)cc2s1`
57.8

Dear colleague, I am looking for the recorded inhibition of the following compound: `O=C(Nc1ccccc1C(=O)N1CCOCC1)c1ccc(CSc2ccccc2)cc1`
-0.886

Dear colleague, I am looking for the recorded inhibition of the following compound: `Cc1ccccc1N1CCN(Cc2nc(Cc3ccccc3F)no2)CC1`
5.46

Dear colleague, I am looking for the recorded inhibition of the following compound: `Cc1cccc(C)c1NC(=O)CNC(=O)C1CCCC1`
-3.97

Dear colleague, I am looking for the recorded inhibition of the following compound: `Cc1cc(-c2ccc(C)c(S(=O)(=O)NCCCN(Cc3ccccc3)C(C)C)c2)on1`
9.13

Dear colleague, I am looking for the recorded inhibition of the following compound: CCC(C)c1ccc(NC(=S)NCc2ccccn2)cc1 (stereo not given)
-14.5

Dear colleague, I am looking for the recorded inhibition of the following compound: `COc1ccc(CCNC(=O)c2cnc(Cl)c(Cl)c2)cc1`
-35.5

Dear colleague, I am looking for the recorded inhibition of the following compound: `O=C1CC[C@H](O)CCN1[C@H](CSc1ccc(Br)cc1)Cc1ccccc1`
-3.24

Dear colleague, I am looking for the recorded inhibition of the following compound: N#CC1(C#N)C(C(=O)C23CC4CC(CC(C4)C2)C3)C12CCOCC2 (stereo not given)
3.42

Dear colleague, I am looking for the recorded inhibition of the following compound: `CCCCCCCCn1c2c(c(=N)c3c1CCC3)CCCC2`
89.5

Dear colleague, I am looking for the recorded inhibition of the following compound: `COC(=O)c1ccc(C(=O)Nc2cc(Cl)ccc2Cl)cc1NC(=O)c1ccccc1C`
-2.99

Dear colleague, I am looking for the recorded inhibition of the following compound: COc1ccc(-n2ncc3c2CC(C)(C)CC3NC(=O)CCc2c(C)noc2C)cc1 (stereo not given)
20

Dear colleague, I am looking for the recorded inhibition of the following compound: `N/C(=N\OC(=O)c1ccc2c(c1)OCO2)c1ccc(Br)cc1`
-102

Dear colleague, I am looking for the recorded inhibition of the following compound: `COc1ccc2[nH]c3nc(SCC(=O)NC4CC4)nnc3c2c1`
-17.7

Dear colleague, I am looking for the recorded inhibition of the following compound: `COc1ccc(CNC(=O)C2CCN(S(C)(=O)=O)CC2)cc1`
11.1

Dear colleague, I am looking for the recorded inhibition of the following compound: COc1cccc(CN2CCNC(=O)C2CC(=O)N(C)CCc2ccccn2)c1 (stereo not given)
-0.459

Dear colleague, I am looking for the recorded inhibition of the following compound: `CC(C)n1c(-c2ccncc2)n[nH]c1=S`
11.1

Dear colleague, I am looking for the recorded inhibition of the following compound: CC(=O)c1ccc(N2CCN(C(=O)C3CCN(S(=O)(=O)c4ccc5c(c4)CC(C)N5C(=O)C4CC4)CC3)CC2)cc1 (stereo not given)
-3.75
